System Tested: avidin (Gallus gallus, UniProt P02701)
Sequence (P02701 25-152, species assumed): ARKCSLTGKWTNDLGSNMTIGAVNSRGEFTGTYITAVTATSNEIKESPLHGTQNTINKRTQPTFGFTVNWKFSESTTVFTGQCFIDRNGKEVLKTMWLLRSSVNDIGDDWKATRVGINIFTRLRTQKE
Measure: Kd

Q: Entry under review: [N-]=[N+]=NC(CCC[C@@H]1SC[C@@H]2NC(=O)N[C@@H]21)C(=O)O (stereo partly shown) . Reported Kd?
Ans: ~0.1 µM

====

System Tested: biotin ligase (BirA) (Escherichia coli)
Sequence (P06709 whole entry): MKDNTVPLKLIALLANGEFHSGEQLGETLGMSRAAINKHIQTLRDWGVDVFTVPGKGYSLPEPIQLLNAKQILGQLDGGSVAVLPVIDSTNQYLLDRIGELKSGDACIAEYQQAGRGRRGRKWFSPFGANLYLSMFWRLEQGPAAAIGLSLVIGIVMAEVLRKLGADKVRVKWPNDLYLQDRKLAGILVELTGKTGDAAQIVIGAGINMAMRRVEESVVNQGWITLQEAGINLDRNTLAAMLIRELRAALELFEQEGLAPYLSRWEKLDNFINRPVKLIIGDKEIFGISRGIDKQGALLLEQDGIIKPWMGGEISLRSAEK
Assay Method Text: Addition to acceptor peptide using BirA biotin ligase (HPLC)
Type: biochemical, E. coli
Assay Conditions: biotin ligase (BirA) from E. coli
Measure: Substrate for BirA

>>> data_value("O=C(O)CCCC[C@@H]1SC[C@@H]2NC(=O)N[C@@H]21 [biotin]")
"Yes"
>>> data_value("C#CCN1C(=O)N[C@H]2CS[C@@H](CCCCC(=O)O)[C@H]21 [cis-propargyl biotin]")
"No"
>>> data_value("[N-]=[N+]=NC(CCC[C@@H]1SC[C@@H]2NC(=O)N[C@@H]21)C(=O)O (stereo partly shown) [2-azidobiotin]")
"Yes"
>>> data_value("O=C(O)CCCC[C@@H]1SC[C@@H]2CC(=O)C[C@@H]21 [ketone biotin, Ketone biotin]")
"Yes"
